Data provenance is ChEMBL document CHEMBL4689842.

- System: U2OS
- assayOverview: Multiplex assay against U2OS
- Type: toxicity, cell-based
- conditions: human, 12 h, 1 µM, compound concentration 1 uM, replicate 1
I'd be grateful if you could share measured Population Fragmented Nuclei (%) for these entries.
Enter your answer as a number in %; do not include the unit.

### Prompt Give the reported value of Population Fragmented Nuclei (%) for this record: Cc1nc(-c2cn3c(n2)-c2ccc(-c4cnn(C(C)(C)C(N)=O)c4)cc2OCC3)n(C(C)C)n1 [TASELISIB]
### Response 3

### Prompt Give Population Fragmented Nuclei (%) for the following compound: COc1ncc(-c2ccc3nccc(-c4ccnnc4)c3c2)cc1NS(=O)(=O)c1ccc(F)cc1F [OMIPALISIB]
### Response 13

### Prompt Look up and state reported Population Fragmented Nuclei (%) for Cc1csc2c(N[C@@H](C)CN3CCN(S(=O)(=O)c4ccc(Cl)c(Cl)c4)CC3)ncnc12
### Response 14

### Prompt Output Population Fragmented Nuclei (%) of CN1CCN(CCOc2cc(OC3CCOCC3)c3c(Nc4c(Cl)ccc5c4OCO5)ncnc3c2)CC1 [SARACATINIB]
### Response 15

### Prompt Identify measured Population Fragmented Nuclei (%) corresponding to Cc1nc(Nc2n[nH]c3c2CN(C(=O)N[C@H](CN(C)C)c2ccccc2)C3(C)C)c2sccc2n1 [PF-03758309]
### Response 9

### Prompt Read the entry O=C1NCN(c2ccccc2)C12CCN(CCCOc1ccc(F)cc1)CC2 [SPIRAMIDE] and write its reported Population Fragmented Nuclei (%).
### Response 16

### Prompt # return recorded Population Fragmented Nuclei (%) for entry CC(C)(O)CNc1ncc(-c2ccnc(Nc3ccnc(Cl)c3)n2)c(CC2CC2)n1
### Response 9

### Prompt In one line, give reported Population Fragmented Nuclei (%) of the entry C[C@@H](NCCCc1cccc(C(F)(F)F)c1)c1cccc2ccccc12.Cl [CINACALCET HYDROCHLORIDE] .
### Response 6

### Prompt Name the recorded Population Fragmented Nuclei (%) of the compound listed here: CN1CCC[C@@H]1CCO[C@](C)(c1ccccc1)c1ccc(Cl)cc1.O=C(O)/C=C/C(=O)O [CLEMASTINE FUMARATE]
### Response 12

### Prompt Please list Population Fragmented Nuclei (%) recorded for the compound CN(C)C(=O)/C(C#N)=C/c1ccc(-c2nc3cnc4[nH]ccc4c3n2C2CCCCC2)o1
### Response 17

### Prompt # return recorded Population Fragmented Nuclei (%) for input COc1cccc([C@@H](C)NCCCc2ccccc2Cl)c1.Cl [TECALCET HYDROCHLORIDE]
### Response 22

### Prompt Hello, please tell me recorded Population Fragmented Nuclei (%) for this one: Cc1c(-c2ccc(O)cc2)n(Cc2ccc(OCCN3CCCCCC3)cc2)c2ccc(O)cc12 [BAZEDOXIFENE]
### Response 22

### Prompt Read the entry C=CC(=O)Nc1cccc(C(=O)Nc2ccc(Nc3cc(-c4[nH]c(SC)nc4C)ccn3)cc2)c1 and write its reported Population Fragmented Nuclei (%).
### Response 9

### Prompt Answer with reported Population Fragmented Nuclei (%) of C[C@@]1(C(=O)Nc2ccc(F)nc2)CCCN1c1nc(Nc2cc(C3CC3)n[nH]2)c2cccn2n1 [BMS-754807]
### Response 8

### Prompt Could you please provide reported Population Fragmented Nuclei (%) for CCN(CC)CCCCNc1ncc2cc(-c3cc(OC)cc(OC)c3)c(NC(=O)NC(C)(C)C)nc2n1 [PD-173074] ? Thanks!
### Response 27
